Target: DNA topoisomerase 1 (Homo sapiens) (UniProt P11387)
Sequence (whole entry): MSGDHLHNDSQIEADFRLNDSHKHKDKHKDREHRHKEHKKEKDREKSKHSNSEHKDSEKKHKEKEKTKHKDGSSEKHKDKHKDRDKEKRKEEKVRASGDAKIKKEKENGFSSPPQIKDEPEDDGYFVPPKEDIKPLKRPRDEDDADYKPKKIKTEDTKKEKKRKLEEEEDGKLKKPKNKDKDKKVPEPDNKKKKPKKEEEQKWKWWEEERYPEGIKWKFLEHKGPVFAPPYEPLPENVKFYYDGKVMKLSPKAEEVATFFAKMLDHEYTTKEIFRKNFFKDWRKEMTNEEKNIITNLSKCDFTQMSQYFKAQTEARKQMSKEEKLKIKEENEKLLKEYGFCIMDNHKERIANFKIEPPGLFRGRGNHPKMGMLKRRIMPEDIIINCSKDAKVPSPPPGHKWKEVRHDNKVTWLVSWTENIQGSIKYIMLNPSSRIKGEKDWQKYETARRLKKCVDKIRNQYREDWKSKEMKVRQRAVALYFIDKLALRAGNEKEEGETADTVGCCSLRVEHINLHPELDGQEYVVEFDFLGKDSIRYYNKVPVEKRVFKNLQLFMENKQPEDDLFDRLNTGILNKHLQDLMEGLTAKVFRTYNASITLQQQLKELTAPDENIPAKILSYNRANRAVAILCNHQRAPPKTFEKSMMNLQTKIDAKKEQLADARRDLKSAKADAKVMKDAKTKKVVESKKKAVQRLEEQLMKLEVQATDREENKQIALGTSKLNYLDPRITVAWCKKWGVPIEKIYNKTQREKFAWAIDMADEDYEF
Experiment: Inhibition of recombinant human DNA topoisomerase 1 expressed in baculovirus expression system assessed as decrease in relaxation of supercoiled pBR322 plasmid DNA at 20 uM using supercoiled pBR322 plasmid DNA as substrate incubated for 30 mins by ethidium bromide staining-based UV imaging analysis relative to control
OBSERVABLE: inhibition (%)

compound="O=C(/C=C/c1ccco1)c1ccc(OCC2CO2)cc1 (stereo not drawn)" reported_value=0
compound="O=C(/C=C/c1ccsc1)c1ccc(OCC2CS2)cc1 (stereo not drawn)" reported_value=0
compound="O=C(/C=C/c1ccc(OCC2CO2)cc1)c1cccs1 (stereo not drawn)" reported_value=15.6
compound="O=C(/C=C/c1ccco1)c1cccc(OCC2CS2)c1 (stereo not drawn)" reported_value=1.3
compound="O=C(/C=C/c1ccsc1)c1ccc(OCC2CO2)cc1 (stereo not drawn)" reported_value=0
compound="O=C(/C=C/c1ccco1)c1ccc(OCC2CS2)cc1 (stereo not drawn)" reported_value=0
compound="O=C(/C=C/c1ccco1)c1ccccc1OCC1CS1 (stereo not drawn)" reported_value=6.4
compound="O=C(/C=C/c1ccco1)c1ccccc1OCC1CO1 (stereo not drawn)" reported_value=24.2

* * *

Listed below: inhibition values for each entry.
Molecular target: UniProt:P11388
Assay: Inhibition of human DNA topoisomerase 2alpha assessed as decrease in relaxation of supercoiled pBR322 plasmid DNA at 20 uM using supercoiled pBR322 plasmid DNA as substrate incubated for 30 mins in presence of ATP by ethidium bromide staining-based UV imaging analysis relative to control
OBSERVABLE: inhibition (%)

compound="O=C(/C=C/c1ccco1)c1ccccc1OCC1CS1 (stereo not given)" observable=inhibition units_of_measure=% reported_value=30.6
compound="O=C(/C=C/c1ccco1)c1ccc(OCC2CS2)cc1 (stereo not given)" observable=inhibition units_of_measure=% reported_value=24.7
compound="O=C(/C=C/c1ccco1)c1cccc(OCC2CS2)c1 (stereo not given)" observable=inhibition units_of_measure=% reported_value=29.8
compound="O=C(/C=C/c1ccco1)c1ccccc1OCC1CO1 (stereo not given)" observable=inhibition units_of_measure=% reported_value=0
compound="O=C(/C=C/c1ccco1)c1cccc(OCC2CO2)c1 (stereo not given)" observable=inhibition units_of_measure=% reported_value=0.3

* * *

Target: DNA topoisomerase 1 (Homo sapiens)
Sequence (whole entry): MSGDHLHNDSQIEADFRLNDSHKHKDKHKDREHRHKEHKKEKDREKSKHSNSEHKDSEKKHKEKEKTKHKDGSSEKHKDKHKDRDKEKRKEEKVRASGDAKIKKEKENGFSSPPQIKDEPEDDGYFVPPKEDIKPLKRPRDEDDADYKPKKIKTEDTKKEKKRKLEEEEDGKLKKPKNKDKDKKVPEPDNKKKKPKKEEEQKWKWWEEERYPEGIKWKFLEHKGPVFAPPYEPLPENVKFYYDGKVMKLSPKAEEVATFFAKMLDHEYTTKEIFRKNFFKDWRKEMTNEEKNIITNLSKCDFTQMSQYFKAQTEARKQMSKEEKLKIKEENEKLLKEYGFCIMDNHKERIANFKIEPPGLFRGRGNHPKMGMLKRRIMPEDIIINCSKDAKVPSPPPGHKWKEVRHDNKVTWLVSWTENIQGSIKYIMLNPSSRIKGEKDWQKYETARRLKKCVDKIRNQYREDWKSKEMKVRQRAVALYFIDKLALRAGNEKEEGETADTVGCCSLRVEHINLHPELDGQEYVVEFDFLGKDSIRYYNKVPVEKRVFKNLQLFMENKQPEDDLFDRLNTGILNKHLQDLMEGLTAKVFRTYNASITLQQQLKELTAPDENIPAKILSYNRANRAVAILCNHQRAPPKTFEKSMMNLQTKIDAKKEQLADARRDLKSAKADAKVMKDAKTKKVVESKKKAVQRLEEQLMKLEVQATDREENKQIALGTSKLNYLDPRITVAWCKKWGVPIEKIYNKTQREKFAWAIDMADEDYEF
Assay: Inhibition of recombinant human DNA topoisomerase 1 expressed in baculovirus expression system assessed as decrease in relaxation of supercoiled pBR322 plasmid DNA at 100 uM using supercoiled pBR322 plasmid DNA as substrate incubated for 30 mins by ethidium bromide staining-based UV imaging analysis relative to control
OBSERVABLE: inhibition

compound="O=C(/C=C/c1ccco1)c1ccccc1OCC1CO1 (configuration not stated)" observable=inhibition reported_value=36.8%
compound="O=C(/C=C/c1ccco1)c1cccc(OCC2CO2)c1 (configuration not stated)" observable=inhibition reported_value=28.5%
compound="O=C(/C=C/c1ccc(OCC(O)CCl)cc1)c1ccco1 (configuration not stated)" observable=inhibition reported_value=1.8%
compound="O=C(/C=C/c1cccs1)c1cccc(OCC2CO2)c1 (configuration not stated)" observable=inhibition reported_value=2.7%
compound="COc1cc([C@@H]2c3cc4c(cc3[C@@H](O[C@@H]3O[C@@H]5CO[C@@H](C)O[C@H]5[C@H](O)[C@H]3O)[C@H]3COC(=O)[C@H]23)OCO4)cc(OC)c1O [ETOPOSIDE]" observable=inhibition reported_value="< 30%"
compound="O=C(/C=C/c1ccoc1)c1ccc(OCC2CO2)cc1 (configuration not stated)" observable=inhibition reported_value=5.6%
compound="O=C(/C=C/c1ccco1)c1ccc(OCC2CO2)cc1 (configuration not stated)" observable=inhibition reported_value=36.8%
compound="O=C(/C=C/c1cccs1)c1ccc(OCC2CS2)cc1 (configuration not stated)" observable=inhibition reported_value=14.5%
compound="O=C(/C=C/c1cccs1)c1ccc(OCC2CO2)cc1 (configuration not stated)" observable=inhibition reported_value=0%
compound="O=C(/C=C/c1ccco1)c1cccc(OCC2CS2)c1 (configuration not stated)" observable=inhibition reported_value=75.4%
compound="O=C(/C=C/c1ccsc1)c1ccc(OCC2CS2)cc1 (configuration not stated)" observable=inhibition reported_value=100%
compound="O=C(/C=C/c1ccc(OCC(O)CCl)cc1)c1cccs1 (configuration not stated)" observable=inhibition reported_value=4.3%
compound="O=C(/C=C/c1cccs1)c1cccc(OCC2CS2)c1 (configuration not stated)" observable=inhibition reported_value=0%
compound="O=C(/C=C/c1ccsc1)c1ccc(OCC2CO2)cc1 (configuration not stated)" observable=inhibition reported_value=46.3%
compound="O=C(/C=C/c1ccc(OCC2CS2)cc1)c1ccco1 (configuration not stated)" observable=inhibition reported_value=3.3%
compound="O=C(/C=C/c1ccco1)c1ccc(OCC2CS2)cc1 (configuration not stated)" observable=inhibition reported_value=63.8%
compound="O=C(/C=C/c1ccc(OCC2CO2)cc1)c1ccco1 (configuration not stated)" observable=inhibition reported_value=0%

* * *

Listed below: inhibition values for each entry.
Molecular target: DNA topoisomerase 2-alpha (Homo sapiens) (UniProt P11388)
Sequence (P11388 whole entry): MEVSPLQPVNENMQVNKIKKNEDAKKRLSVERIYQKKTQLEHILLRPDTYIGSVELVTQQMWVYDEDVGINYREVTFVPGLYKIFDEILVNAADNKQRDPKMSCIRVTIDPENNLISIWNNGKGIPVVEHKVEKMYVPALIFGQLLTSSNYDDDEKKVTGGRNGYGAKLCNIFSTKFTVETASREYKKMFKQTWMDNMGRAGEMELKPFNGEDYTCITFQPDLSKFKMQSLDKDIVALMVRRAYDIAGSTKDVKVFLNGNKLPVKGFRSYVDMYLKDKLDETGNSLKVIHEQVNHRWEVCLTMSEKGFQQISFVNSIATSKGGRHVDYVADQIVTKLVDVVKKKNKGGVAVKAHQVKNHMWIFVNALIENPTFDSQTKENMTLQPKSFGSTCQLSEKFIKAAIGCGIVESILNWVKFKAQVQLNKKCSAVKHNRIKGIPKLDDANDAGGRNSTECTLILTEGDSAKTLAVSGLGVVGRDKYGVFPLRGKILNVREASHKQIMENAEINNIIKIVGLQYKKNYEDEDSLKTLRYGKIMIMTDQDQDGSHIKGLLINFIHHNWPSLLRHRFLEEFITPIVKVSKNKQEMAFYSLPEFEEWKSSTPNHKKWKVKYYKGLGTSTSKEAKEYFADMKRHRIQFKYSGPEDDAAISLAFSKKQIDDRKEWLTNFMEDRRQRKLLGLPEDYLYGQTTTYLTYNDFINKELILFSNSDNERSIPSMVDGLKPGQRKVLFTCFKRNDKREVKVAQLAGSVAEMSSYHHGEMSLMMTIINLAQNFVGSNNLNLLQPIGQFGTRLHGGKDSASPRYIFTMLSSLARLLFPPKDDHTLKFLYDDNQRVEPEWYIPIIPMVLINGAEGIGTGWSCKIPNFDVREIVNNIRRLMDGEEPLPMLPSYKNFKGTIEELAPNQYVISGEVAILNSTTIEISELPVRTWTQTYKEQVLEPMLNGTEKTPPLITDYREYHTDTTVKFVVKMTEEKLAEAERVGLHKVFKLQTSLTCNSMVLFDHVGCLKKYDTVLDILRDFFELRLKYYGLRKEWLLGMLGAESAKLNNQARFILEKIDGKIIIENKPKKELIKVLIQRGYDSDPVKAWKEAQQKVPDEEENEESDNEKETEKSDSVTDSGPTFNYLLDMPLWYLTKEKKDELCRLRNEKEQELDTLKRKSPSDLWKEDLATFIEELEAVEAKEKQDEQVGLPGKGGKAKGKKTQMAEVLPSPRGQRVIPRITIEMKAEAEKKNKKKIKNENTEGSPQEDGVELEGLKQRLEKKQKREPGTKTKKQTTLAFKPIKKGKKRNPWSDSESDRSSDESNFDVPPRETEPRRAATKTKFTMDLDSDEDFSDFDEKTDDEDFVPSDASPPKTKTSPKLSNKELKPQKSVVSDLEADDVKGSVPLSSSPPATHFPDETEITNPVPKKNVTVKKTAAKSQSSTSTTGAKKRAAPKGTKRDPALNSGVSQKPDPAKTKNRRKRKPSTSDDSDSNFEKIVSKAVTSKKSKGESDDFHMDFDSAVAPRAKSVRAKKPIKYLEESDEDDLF
Assay: Inhibition of human DNA topoisomerase 2alpha assessed as decrease in relaxation of supercoiled pBR322 plasmid DNA at 100 uM using supercoiled pBR322 plasmid DNA as substrate incubated for 30 mins in presence of ATP by ethidium bromide staining-based UV imaging analysis relative to control
OBSERVABLE: inhibition (%)

compound=CC[C@@]1(O)C(=O)OCc2c1cc1n(c2=O)Cc2cc3ccccc3nc2-1 experimental_system="DNA topoisomerase 2-alpha (Homo sapiens) (UniProt P11388)" relation_qualifier=< reported_value=30
compound="O=C(/C=C/c1ccc(OCC2CO2)cc1)c1cccs1 (stereo unspecified)" experimental_system="DNA topoisomerase 2-alpha (Homo sapiens) (UniProt P11388)" relation_qualifier== reported_value=0
compound="O=C(/C=C/c1ccoc1)c1ccc(OCC2CO2)cc1 (stereo unspecified)" experimental_system="DNA topoisomerase 2-alpha (Homo sapiens) (UniProt P11388)" relation_qualifier== reported_value=0.3
compound="O=C(/C=C/c1cccs1)c1ccccc1OCC1CO1 (stereo unspecified)" experimental_system="DNA topoisomerase 2-alpha (Homo sapiens) (UniProt P11388)" relation_qualifier== reported_value=0.7
compound="O=C(/C=C/c1ccc(OCC2CS2)cc1)c1cccs1 (stereo unspecified)" experimental_system="DNA topoisomerase 2-alpha (Homo sapiens) (UniProt P11388)" relation_qualifier== reported_value=0
compound="O=C(/C=C/c1ccc(OCC(O)CCl)cc1)c1cccs1 (stereo unspecified)" experimental_system="DNA topoisomerase 2-alpha (Homo sapiens) (UniProt P11388)" relation_qualifier== reported_value=3.7
compound="O=C(/C=C/c1ccoc1)c1ccc(OCC2CS2)cc1 (stereo unspecified)" experimental_system="DNA topoisomerase 2-alpha (Homo sapiens) (UniProt P11388)" relation_qualifier== reported_value=0
compound="O=C(/C=C/c1ccco1)c1ccc(OCC2CS2)cc1 (stereo unspecified)" experimental_system="DNA topoisomerase 2-alpha (Homo sapiens) (UniProt P11388)" relation_qualifier== reported_value=94.5
compound="O=C(/C=C/c1ccc(OCC2CS2)cc1)c1ccco1 (stereo unspecified)" experimental_system="DNA topoisomerase 2-alpha (Homo sapiens) (UniProt P11388)" relation_qualifier== reported_value=0
compound="O=C(/C=C/c1ccsc1)c1ccc(OCC2CO2)cc1 (stereo unspecified)" experimental_system="DNA topoisomerase 2-alpha (Homo sapiens) (UniProt P11388)" relation_qualifier== reported_value=2.7
compound="O=C(/C=C/c1ccco1)c1ccccc1OCC1CO1 (stereo unspecified)" experimental_system="DNA topoisomerase 2-alpha (Homo sapiens) (UniProt P11388)" relation_qualifier== reported_value=82.3
